target: FGFR3 (Homo sapiens)
Sequence (P22607 23-806): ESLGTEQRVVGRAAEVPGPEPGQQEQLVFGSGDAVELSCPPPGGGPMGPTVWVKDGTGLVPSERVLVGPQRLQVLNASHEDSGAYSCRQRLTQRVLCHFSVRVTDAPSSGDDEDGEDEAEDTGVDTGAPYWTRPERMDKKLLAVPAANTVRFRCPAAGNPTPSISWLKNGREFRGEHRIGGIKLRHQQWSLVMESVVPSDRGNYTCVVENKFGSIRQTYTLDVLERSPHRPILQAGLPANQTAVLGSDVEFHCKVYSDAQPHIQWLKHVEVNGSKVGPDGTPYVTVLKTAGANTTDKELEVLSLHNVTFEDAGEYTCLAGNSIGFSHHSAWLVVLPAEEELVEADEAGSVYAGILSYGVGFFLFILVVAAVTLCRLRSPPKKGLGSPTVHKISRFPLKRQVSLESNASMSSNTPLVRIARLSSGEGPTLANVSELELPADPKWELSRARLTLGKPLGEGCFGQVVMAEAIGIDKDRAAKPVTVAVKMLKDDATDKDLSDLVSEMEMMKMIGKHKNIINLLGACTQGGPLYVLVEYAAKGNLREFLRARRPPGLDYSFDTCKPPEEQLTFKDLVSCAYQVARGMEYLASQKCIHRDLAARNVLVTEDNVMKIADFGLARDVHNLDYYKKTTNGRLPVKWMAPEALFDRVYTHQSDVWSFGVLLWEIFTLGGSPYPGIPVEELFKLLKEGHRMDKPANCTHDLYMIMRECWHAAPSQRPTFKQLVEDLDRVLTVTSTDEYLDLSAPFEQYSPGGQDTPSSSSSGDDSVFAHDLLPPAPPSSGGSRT
endpoint: pIC50
pIC50 here is simply -log10 of the concentration when that concentration is written in mol/L.

Notebook: pull reported pIC50 for FGFR3 (Homo sapiens), entry Cn1cc(-c2[nH]c3cc(NC(=O)[C@H](N)C4CCCCC4)cc4c3c2C=NNC4=O)cn1
7.64

---

test: in vivo; details: mouse
endpoint: MTD (mg/kg)
Give your result in mg/kg as a bare value.

Give the measured MTD of Cn1cc(-c2[nH]c3cc(NC(=O)[C@H](N)C4CCCCC4)cc4c3c2C=NNC4=O)cn1 .
60

---

Target: Flt3 (Homo sapiens, UniProt P36888)
Sequence (P36888 27-993): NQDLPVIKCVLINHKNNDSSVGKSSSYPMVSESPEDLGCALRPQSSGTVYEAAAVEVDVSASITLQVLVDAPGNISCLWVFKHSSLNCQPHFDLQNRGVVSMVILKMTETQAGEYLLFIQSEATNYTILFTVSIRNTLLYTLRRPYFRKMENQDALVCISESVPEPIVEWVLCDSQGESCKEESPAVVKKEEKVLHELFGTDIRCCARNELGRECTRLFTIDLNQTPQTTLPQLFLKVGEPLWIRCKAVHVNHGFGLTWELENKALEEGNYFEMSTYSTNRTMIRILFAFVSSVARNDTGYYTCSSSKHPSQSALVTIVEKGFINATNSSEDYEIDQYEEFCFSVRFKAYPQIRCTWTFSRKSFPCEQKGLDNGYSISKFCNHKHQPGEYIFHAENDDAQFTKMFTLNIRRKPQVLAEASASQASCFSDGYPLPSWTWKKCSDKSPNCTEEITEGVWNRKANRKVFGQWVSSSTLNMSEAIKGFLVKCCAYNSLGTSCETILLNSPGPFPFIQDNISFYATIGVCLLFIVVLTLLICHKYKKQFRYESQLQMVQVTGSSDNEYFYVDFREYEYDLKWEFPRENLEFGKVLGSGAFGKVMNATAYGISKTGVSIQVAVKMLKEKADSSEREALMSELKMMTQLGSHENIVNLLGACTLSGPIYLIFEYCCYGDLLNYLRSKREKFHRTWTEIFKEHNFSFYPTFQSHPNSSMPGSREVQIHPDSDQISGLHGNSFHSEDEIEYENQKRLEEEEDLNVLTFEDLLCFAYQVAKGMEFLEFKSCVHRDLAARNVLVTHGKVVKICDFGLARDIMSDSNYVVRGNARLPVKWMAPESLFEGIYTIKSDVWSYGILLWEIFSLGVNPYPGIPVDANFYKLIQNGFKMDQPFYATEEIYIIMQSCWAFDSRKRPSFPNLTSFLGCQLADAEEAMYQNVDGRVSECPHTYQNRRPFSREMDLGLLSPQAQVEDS
endpoint: pIC50
pIC50 here is simply -log10 of the concentration when that concentration is written in mol/L.

Give the measured pIC50 of Cn1cc(-c2[nH]c3cc(NC(=O)[C@H](N)C4CCCCC4)cc4c3c2C=NNC4=O)cn1 .
7.60
